- procedure summary: yeast display, Sf9 membrane polyspecificity reagent, FACS + sequencing; frameworks hold sequencing errors
parameter: polyreactivity (PSR sort gate)

QVQLVESGGGLVQAGGSLRLICAASGFIFGAYTMGWYRQAPGKERELVADISRRGGTTYYADSVKGRFTISRDNAKNTVYLQMISLKPEDTAVYYCAKVANFWYITTLRGYYYWGQGTQVTVSS | high polyreactivity
QVHLVESGRGLVQAGGSLRLSCAASGSTFGWNTMGWYRQAPAKERELVAAISWSGDRTYYADSVKGRFTISRDNAKNTVYLQMNRLKPEDTAVYYCARQRYYGYYYWGQGTQVTVSS | high polyreactivity

====

- procedure summary: yeast display, Sf9 membrane polyspecificity reagent, FACS + sequencing; frameworks hold sequencing errors
parameter: polyreactivity (PSR sort gate)

QVQLVESGGGLVQAGGSIRLSCAASGRIFGRYAMGWYRQAPGKEMELVATITWRGGITYYADSVKGRFTISRDNAKNTVYLQLKRLKPEDNAVYYCAAGYGRIPYEYWGQGTQVTVSS | high polyreactivity
QVQLVESGGGLVQAGGSLRLSCAASGRIFAPYAMGWYRQAPGKEREVVAGITRGGITNYADSVKGRFTISRDNAKNTVYLQMNSLKPEDTAVYYCATVVNRRGFYQYYYWGQGTQVTVSS | high polyreactivity
QVQLVESGGGLVQAGGSLRLSCAASGRTFVYYAMGWYRQAPGKERELVAAIRSGGSTNYADSVKGLFSISRDTAKNTVSLQMNSLKPEDTSVYYCNAVHYYYYKGDYWGQGTQVTVSS | high polyreactivity
QVQLVESGGGIVQAGGSLRLSCAASGIIFSANAMGWYRQAPGKERELVAAISRAGSTNYADYVKGRFTISRDNAKNTVYLQMNSLKPEDTAVYYCAAGGGFYFIWTMDYWGQGTQVTVSS | low polyreactivity
QVQLVESGGGLVQAGGSLRLSCAASGSTFYRNAMGAYRQAPGKDREFVAAISFRGGGTYADSVKGRCTISRDNANNTVYLQMNSLKPEDTAVYYCAADHLSYRRRYEYWGQGTQVTVSS | low polyreactivity

Hey, quick one: what's polyreactivity (PSR sort gate) for each of these?
1. QVQLVESGGGLVQAGGSLRLSCAASGYTFPIYAMGWYRQAPGTERELVAGISKNGGSTYYADSVKGRFTISRDNAKNTVYLQMNSLKPVDTAVYYCNASAWGRPYYLGSYFVYPGYEYWGQGTEVTVSS
2. QVQLVESGGGLVQAGGSLRLSCAASGSTFTSYAMGWYRQAPGKERELVAAIRYRGDGTYYADSVKGRCTISRDNAKNTVNLQMNSLKPEDNAVYYCAADTTLQAFIRYRPIGSYDSWGQGTKVTVSS
3. QVQLVESGGGLLQAGGSLLLSCAASGSIFDTNAMGWYRQAPGTERELVAAISWSDTSTYADSVKGRFTISRDNAKNTVYLQMNSLKPEDTAVYYCATDTRSQAYYYWGQGTQVNVSS
4. QVQLVESGGGLDQAGGRLRLICAASGRTFTTYAMGWNRQAPGKERELVASISRRGGSTYYADSVKGRFTISRDNAKNTVYLQMTSLKPEDTAVYYCAAKTGTYRGRQVYTYGYWGQGTQVTVSS

Response:
["low polyreactivity", "low polyreactivity", "low polyreactivity", "high polyreactivity"]

====

- procedure summary: yeast display, Sf9 membrane polyspecificity reagent, FACS + sequencing; frameworks hold sequencing errors
parameter: polyreactivity (PSR sort gate)

QVQLVESGGGLVQAGGSLRLSCAASGLIFITYAMGWYRQAPGKERELVATITLRGGSTYYADSVKGRFTISRDNAKNTVYLQMNSLKPEDTAVYYCAARYFSYYILRRIYPVREDYWGQGTQVTVSS | low polyreactivity
QVQLVESGGGLVQAGGRLRLSCAASGFIFSYYAMAWYIQAPGKERELVAAISSAGSTYYADSVKGRFTISRDNAKNTVYLQMNSLKPEDTAVYYCAAAIWYIKLYFVRRTEHGYWGQGTQVTVSS | low polyreactivity
QVQLVESGGGVVQAGGSLRLSCAASGSTFYANAMGWSRQAPGKERELVAAISSGGSTYYADSVKGRFTISRDNAKNTVYLQMNSLKPDDTAVYYCAKPFYSYRYGFGYWGQGTQVTVSS | low polyreactivity

src = the nanobody polyreactivity screen of Harvey et al. (2022)
